- assay target: T1, CD19 antigen on Daudi lymphoma cells (human, UniProt P15391 20-556)
- T1 construct: whole, on cells; also called Daudi cells
- T1 sequence (looked up): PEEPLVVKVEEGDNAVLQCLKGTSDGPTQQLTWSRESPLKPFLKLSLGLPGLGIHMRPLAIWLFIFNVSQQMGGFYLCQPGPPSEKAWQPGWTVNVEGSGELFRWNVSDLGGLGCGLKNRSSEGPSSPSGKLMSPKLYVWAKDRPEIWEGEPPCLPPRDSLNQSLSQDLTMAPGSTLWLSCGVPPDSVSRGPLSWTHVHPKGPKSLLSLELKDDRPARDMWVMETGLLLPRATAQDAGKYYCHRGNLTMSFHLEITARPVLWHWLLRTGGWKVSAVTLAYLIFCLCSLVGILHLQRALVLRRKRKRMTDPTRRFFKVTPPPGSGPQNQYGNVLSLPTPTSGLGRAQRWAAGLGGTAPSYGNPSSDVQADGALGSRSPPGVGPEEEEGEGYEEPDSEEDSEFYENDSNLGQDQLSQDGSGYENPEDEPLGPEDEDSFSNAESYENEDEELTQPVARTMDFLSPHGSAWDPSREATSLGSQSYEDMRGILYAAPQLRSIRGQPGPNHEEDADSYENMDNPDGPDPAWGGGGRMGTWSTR
- assay comment: FACS competition on Daudi cells; unlabeled antibody 800 ng/ml (8x) vs competitor biotin-B4 VH0/VK0 100 ng/ml
measurement name: % inhibition of labeled B4 binding (%)
Report the figure in % without appending any unit label.

Query string: Quote % inhibition of labeled B4 binding reported for B4 VHv1/VKv1 antibody (antibody, V domains shown) VH: QVQLQQPGAEVVKPGASVRLSCETSGYTFTSNWMHWVKQRPDQGLEWIGEIDPSDSYTNYNQKFKGKAELTVDKSSSTAYMEVSDLTSEDSAVYYCARGSNPYYYAMDYWGQGTSVTVSS VL: QIALTQEPAIMSASPGEKVTMTCSASSGVNYMHWYQQKPGTSPKRWIYDTSKLDSGVPARFSGSGSGTSYSLTISSMEAEDAATYYCHQRGSYTFGGGTKLEIK please.
Result string: 56

Query string: Tell me % inhibition of labeled B4 binding reported for B4 VHv4/VKv4 antibody (antibody, V domains shown) VH: QVQLEQPGAEVVKPGASVKVSCKTSGYTFTSNWMHWVKQTPGKGLEWIGEIDPSDSYTNYNQKFDGKAKLTVDKSSSTAYMEVSDLTAEDSATYYCARGSNPYYYAMDYWGQGTSVTVSS VL: QIVLTQSPATLSASPGEKATMTCSASSGVNYMHWYQQKPGTSPKRWIYDTDKTASGVPARFSGSGSGTSYSLTISSMEAEDAATYYCHQRGSYTFGGGTKLEIK
Result string: 60

Query string: Give the value of % inhibition of labeled B4 binding reported for the following: B4 VHv3/VKv3 antibody (antibody, V domains shown) VH: QVQLEQPGAEVKKPGASVKVSCKASGYTFTSNWMHWVKQRPGQGLEWIGEIDPSDSYTNYNQKFKGKAKLTVDKSSSTAYMEVSDLTAEDSAVYYCARGSNPYYYAMDYWGQGTSVTVSS VL: QIVLTQSPATLSASPGEKATMTCSASSGANYMHWYQQKPGTSPKRWIYDTSKLASGVPARFSGSGSGTSYSLTIESMEAEDAATYYCHQRGSYTFGGGTKLEIK
Result string: 60
